tested on: Male DBA 2J mice; assay: Audiogenic seizures (anticonvulsive test); type: in vivo; conditions: po, 0.5 h; mouse, p.o., prevention of tonic convulsions in 50% of animals, 30 minutes before test; read-out: Audiogenic seizure, mouse, ED50
recorded-endpoint: log10 of ED50 (log10 of the value in mg/kg)

[[record]]
mol = "Fc1ccc2c(c1)-c1ncnn1Cc1c(-c3nc(C4CC4)no3)ncn1-2"
value_measured = -0.57

[[record]]
mol = "Fc1ccc2c(c1)-c1ncnn1Cc1c(-c3noc(C4CC4)n3)ncn1-2"
value_measured = -1.82

[[record]]
mol = "Clc1ccc2c(c1)-c1nccn1Cc1c(-c3noc(C4CC4)n3)ncn1-2"
value_measured = -0.68

[[record]]
mol = "CCOCc1nc(-c2ncn3c2Cn2ncnc2-c2cc(F)ccc2-3)no1"
value_measured = -0.96

[[record]]
mol = "Clc1cccc2c1-c1nccn1Cc1c(-c3noc(C4CC4)n3)ncn1-2"
value_measured = -3.96

[[record]]
mol = "c1ccc2c(c1)-c1ncnn1Cc1c(-c3noc(C4CC4)n3)ncn1-2"
value_measured = 0.62

[[record]]
mol = "Clc1cccc2c1-c1nccn1Cc1c(-c3nc(C4CC4)no3)ncn1-2"
value_measured = -2.41


----------
Let's look at some compounds and their measured pIC50.
Target: central benzodiazepine receptors
Experiment: 3H-Flumazenil binding test in vitro
Details: inhibition of specific binding of tritiated flumazenil, rat cortex
Method: 3H-Flumazenil binding test The affinity of compounds of formula I to the central benzodiazepine receptors was established in vitro according to the methods described in Nature 294, 763-765 (1981) and J. Neurochemistry 37, 714-722 (1981). According to these methods, the inhibition of the binding of tritiated flumazenil to the specific benzodiazepine receptors in the cortex of rats by the respective test substances is determined. […]
pIC50: −log10 of the molar value.
recorded-endpoint: pIC50

[[record]]
mol = "Clc1cccc2c1-c1nccn1Cc1c(-c3nc(C4CC4)no3)ncn1-2"
recorded_endpoint = "pIC50"
value_measured = 9.54

[[record]]
mol = "Clc1cccc2c1-c1ncnn1Cc1c(-c3noc(C4CC4)n3)ncn1-2"
recorded_endpoint = "pIC50"
value_measured = 9.22

[[record]]
mol = "c1ccc2c(c1)-c1ncnn1Cc1c(-c3noc(C4CC4)n3)ncn1-2"
recorded_endpoint = "pIC50"
value_measured = 9.48

[[record]]
mol = "c1ccc2c(c1)-c1ncnn1Cc1c(-c3nc(C4CC4)no3)ncn1-2"
recorded_endpoint = "pIC50"
value_measured = 8.89

[[record]]
mol = "Clc1ccc2c(c1)-c1nccn1Cc1c(-c3noc(C4CC4)n3)ncn1-2"
recorded_endpoint = "pIC50"
value_measured = 8.54

[[record]]
mol = "Clc1cccc2c1-c1nccn1Cc1c(-c3noc(C4CC4)n3)ncn1-2"
recorded_endpoint = "pIC50"
value_measured = 9.52

[[record]]
mol = "Fc1ccc2c(c1)-c1ncnn1Cc1c(-c3nc(C4CC4)no3)ncn1-2"
recorded_endpoint = "pIC50"
value_measured = 8.60

[[record]]
mol = "Fc1ccc2c(c1)-c1ncnn1Cc1c(-c3noc(C4CC4)n3)ncn1-2"
recorded_endpoint = "pIC50"
value_measured = 9.04

[[record]]
mol = "CCOCc1nc(-c2ncn3c2Cn2ncnc2-c2cc(F)ccc2-3)no1"
recorded_endpoint = "pIC50"
value_measured = 8.52


----------
Let's look at some compounds and their measured log10 ED50.
system: female mice (Charles-River); experiment: Reversal of the action of meclonazepam in the rotating rod test; assay type: in vivo; conditions: iv, 0.5 h; mouse, i.v., after 5 mg/kg meclonazepam i.p.; 50% of animals remain on rod; read-out: Anti-meclonazepam, rotating rod, mouse, ID50
recorded-endpoint: log10 ED50 (log10 of the value in mg/kg)

[[record]]
mol = "CCOCc1nc(-c2ncn3c2Cn2ncnc2-c2cc(F)ccc2-3)no1"
value_measured = 0.26

[[record]]
mol = "Fc1ccc2c(c1)-c1ncnn1Cc1c(-c3noc(C4CC4)n3)ncn1-2"
value_measured = -0.77

[[record]]
mol = "Clc1cccc2c1-c1nccn1Cc1c(-c3nc(C4CC4)no3)ncn1-2"
value_measured = -1.00

[[record]]
mol = "Clc1cccc2c1-c1ncnn1Cc1c(-c3noc(C4CC4)n3)ncn1-2"
value_measured = -2.33

[[record]]
mol = "Fc1ccc2c(c1)-c1ncnn1Cc1c(-c3nc(C4CC4)no3)ncn1-2"
value_measured = -0.10

[[record]]
mol = "c1ccc2c(c1)-c1ncnn1Cc1c(-c3noc(C4CC4)n3)ncn1-2"
value_measured = -1.10

[[record]]
mol = "c1ccc2c(c1)-c1ncnn1Cc1c(-c3nc(C4CC4)no3)ncn1-2"
value_measured = 0.18

